Data provenance: PubChem BioAssay (NCI)

tested on: EKVX NSCLC; assay: NCI tumour cell line growth inhibition, 48 h
value-type: TGI

Need TGI of CSC1NNC2(C(=O)N1)c1ccccc1-c1ccccc12 (stereo not given) , thanks.
> 10 µM

Now consider CC(C)(O)CCC(O)C(C)(O)C1CCC2(O)C3=CC(=O)C4(O)CC(O)C(O)CC4(C)C3CCC12C (stereo not given) (tested in a mixture with another compound) .
> 100 µM

Now consider Cc1cccc(C(O)c2cccnc2)c1O (stereo not given) .
> 100 µM

Now consider "O=C(O)c1cc2c(c3ccsc13)-c1ccccc1CC2" .
> 100 µM

Now consider "O=C(c1ccccc1)c1ccccc1C(=O)c1ccccc1" .
> 100 µM

Now consider "CC1(C)N=C(N)N=C(N)N1c1ccc(OCCCOc2ccccc2)c(Cl)c1" .
14.4 µM

Now consider "NC1CCCCC1N.O=S(=O)([O-])CCCN1CCN(CCO)CC1.O=S(=O)([O-])CCCN1CCN(CCO)CC1.[Pt+4]" .
> 100 µM

Now consider "Cc1ccc(SCC(O)=C2C(=O)CCCC2=O)cc1" .
> 100 µM

Now consider C[C@@H]1OCC(O)C([C@H]2OC(c3ccccc3)=N[C@H]2CO)O1 (stereo not given in full) .
> 100 µM

Now consider "COc1ccc(C2=NNC(=O)c3ccccc3N2c2nc(-c3cccs3)nc3ccc(Br)cc23)cc1" .
91.5 µM
